- SYSTEM NAME: T1, SARS-CoV-2 receptor binding domain, native (501N) (SARS-CoV-2, UniProt P0DTC2 330-532)
- T1 construct: range 330-532
- PROTOCOL: BLI, RBD immobilised on AR2G biosensor, 1:1 fit
Reported values of Kd for individual entries
Write it as a number; the unit nM goes unstated.

[
  {
    "BINDER": "Fab of antibody 269 (Fab, V domains shown, also called 269 Fab; COVOX-269) VH: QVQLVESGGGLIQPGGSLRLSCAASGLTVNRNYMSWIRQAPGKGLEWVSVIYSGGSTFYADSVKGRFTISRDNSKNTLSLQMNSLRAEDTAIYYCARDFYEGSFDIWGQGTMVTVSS VL: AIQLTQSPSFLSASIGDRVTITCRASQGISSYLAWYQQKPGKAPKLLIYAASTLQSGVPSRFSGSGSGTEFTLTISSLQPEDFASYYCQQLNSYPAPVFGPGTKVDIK",
    "Kd (nM)": 1.59
  }
]

Prompt: Item under review: Fab of antibody 88 (Fab, V domains shown, also called 88 Fab; Fab 88) VH: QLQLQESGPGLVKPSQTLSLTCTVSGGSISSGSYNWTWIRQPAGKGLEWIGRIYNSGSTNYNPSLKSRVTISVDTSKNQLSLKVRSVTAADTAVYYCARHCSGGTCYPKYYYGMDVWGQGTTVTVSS VL: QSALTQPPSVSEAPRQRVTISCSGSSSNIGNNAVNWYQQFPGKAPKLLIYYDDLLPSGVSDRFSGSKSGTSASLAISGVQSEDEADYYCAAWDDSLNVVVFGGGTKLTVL . Reported Kd?
Response: 0.64

Prompt: Then this binder: Fab of antibody 158 (Fab, V domains shown, also called 158 Fab; Fab 158) VH: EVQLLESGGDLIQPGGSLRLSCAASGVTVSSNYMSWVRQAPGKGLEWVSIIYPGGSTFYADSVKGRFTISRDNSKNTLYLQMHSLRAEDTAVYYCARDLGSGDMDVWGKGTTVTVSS VL: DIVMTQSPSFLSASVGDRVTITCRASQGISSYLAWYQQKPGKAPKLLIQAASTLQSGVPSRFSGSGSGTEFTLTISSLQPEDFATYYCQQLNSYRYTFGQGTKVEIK
Response: 0.53
